# system-tested: WT/R232 STING protein (Homo sapiens, UniProt Q86WV6, H232R)
# Sequence (Q86WV6 whole entry H232R): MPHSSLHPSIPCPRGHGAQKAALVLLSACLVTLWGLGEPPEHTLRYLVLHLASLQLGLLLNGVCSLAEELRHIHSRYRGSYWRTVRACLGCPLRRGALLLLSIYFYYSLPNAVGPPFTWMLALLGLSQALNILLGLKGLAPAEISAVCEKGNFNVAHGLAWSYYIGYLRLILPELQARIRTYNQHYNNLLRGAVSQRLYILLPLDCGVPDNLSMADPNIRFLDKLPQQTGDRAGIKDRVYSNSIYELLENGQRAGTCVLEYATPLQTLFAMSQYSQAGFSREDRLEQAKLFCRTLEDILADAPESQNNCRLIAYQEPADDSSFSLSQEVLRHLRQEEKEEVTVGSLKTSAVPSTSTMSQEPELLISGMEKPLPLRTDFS
# test-name: Luciferase reporter assay in HEK293T-hSTING-Luciferase cells, WT/R232
# experimental-setup: 20 hr stimulation, read-out: R232 Activity (EC50 range)
pEC50: −log10 of the molar value.
quantity: pEC50

[
  {
    "compound": "O=C(NCc1c(F)cc(F)cc1F)c1ccc2c(c1)N(C(=O)c1c(F)cccc1Cl)CCO2 [Example 264]",
    "experimental-value": "< 5.00"
  },
  {
    "compound": "CC1Sc2ccc(C(=O)NCc3c(F)cc(F)cc3F)cc2N(Cc2cccc(C(N)=O)c2)C1=O (centres unmarked) [Example 160]",
    "experimental-value": "> 6.00"
  },
  {
    "compound": "CC1Sc2ccc(C(=O)NCc3c(F)cc(F)cc3F)nc2N(Cc2cc(F)cc(F)c2)C1=O (centres unmarked) [Example 185]",
    "experimental-value": "5.00 to 6.00"
  },
  {
    "compound": "O=C(NCc1ccc(F)cc1)c1ccc2c(c1)N(Cc1c(F)cccc1Cl)C(=O)CC2 [Example 269]",
    "experimental-value": "> 6.00"
  },
  {
    "compound": "C[C@@H]1Oc2ccc(C(=O)NCc3c(F)cc(F)cc3F)cc2N(Cc2cc(F)cc(F)c2)C1=O [Example 243]",
    "experimental-value": "> 6.00"
  },
  {
    "compound": "O=C(NCc1ccc(F)cc1)c1ccc2c(c1)N(Cc1ccccc1Cl)C(=O)CS2 [Example 122]",
    "experimental-value": "5.00 to 6.00"
  },
  {
    "compound": "O=C(NCc1ccccc1Cl)c1ccc2c(c1)N(Cc1cccc(Cl)c1)C(=O)CS2 [Example 124]",
    "experimental-value": "< 5.00"
  },
  {
    "compound": "Cc1ccc(CNC(=O)c2ccc3c(n2)N(Cc2cc(F)cc(F)c2)C(=O)C(C)S3)o1 (centres unmarked) [Example 198]",
    "experimental-value": "> 6.00"
  }
]
